Known pIC50 of a selection of molecules
experimentalTarget: human PDE4B1 (Homo sapiens)
Construct: host or cells: Sf9 cells
Sequence (Q07343 whole entry): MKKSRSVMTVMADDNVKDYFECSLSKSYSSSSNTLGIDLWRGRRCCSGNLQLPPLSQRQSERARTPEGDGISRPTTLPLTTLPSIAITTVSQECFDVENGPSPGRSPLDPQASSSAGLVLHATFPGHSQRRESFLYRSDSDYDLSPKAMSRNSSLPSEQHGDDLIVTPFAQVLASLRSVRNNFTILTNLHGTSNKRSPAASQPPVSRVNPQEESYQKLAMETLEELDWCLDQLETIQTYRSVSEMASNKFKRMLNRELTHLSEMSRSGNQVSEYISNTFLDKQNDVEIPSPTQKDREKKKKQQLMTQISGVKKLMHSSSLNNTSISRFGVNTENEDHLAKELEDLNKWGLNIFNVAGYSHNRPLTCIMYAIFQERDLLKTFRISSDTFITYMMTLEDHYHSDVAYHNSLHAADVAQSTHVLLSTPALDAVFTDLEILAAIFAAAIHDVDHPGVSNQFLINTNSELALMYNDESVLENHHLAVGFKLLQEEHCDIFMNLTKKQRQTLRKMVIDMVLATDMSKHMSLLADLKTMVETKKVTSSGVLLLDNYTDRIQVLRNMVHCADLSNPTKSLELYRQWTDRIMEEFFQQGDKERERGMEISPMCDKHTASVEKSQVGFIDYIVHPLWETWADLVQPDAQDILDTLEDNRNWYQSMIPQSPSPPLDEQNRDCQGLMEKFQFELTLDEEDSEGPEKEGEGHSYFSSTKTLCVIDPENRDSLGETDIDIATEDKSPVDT
assayNotes: cAMP HTRF assay to determine the activity of hPDE4B1
Type: biochemical
studyConditions: dose response measurements with eight concentrations; reported as ranges; read-out: IC50
pIC50: −log10 of the molar value.
measuredAttribute: pIC50

[[record]]
molecule = "CN(C)C(=O)COc1ccc2c(c1)N(c1nc(-c3ccccc3C(F)(F)F)nc3c1C[S+]([O-])C3)CC2 (stereo not drawn)"
experimentaltarget = "human PDE4B1 (Homo sapiens)"
observedmeasurement = "6.00 to 7.00"

[[record]]
molecule = "CN(C)C(=O)COc1ccc2c(c1)N(c1nc(-c3ccc(S(C)(=O)=O)cc3)nc3c1C[S+]([O-])C3)CC2 (stereo not drawn)"
experimentaltarget = "human PDE4B1 (Homo sapiens)"
observedmeasurement = "> 7.00"

[[record]]
molecule = "CN(C)C(=O)COc1ccc2c(c1)N(c1nc(-c3ccc(F)s3)nc3c1C[S+]([O-])C3)CC2 (stereo not drawn)"
experimentaltarget = "human PDE4B1 (Homo sapiens)"
observedmeasurement = "> 7.00"

[[record]]
molecule = "COc1ccc(-c2nc3c(c(N4CCc5cc(CC(=O)O)ccc54)n2)CSC3)cc1Cl"
experimentaltarget = "human PDE4B1 (Homo sapiens)"
observedmeasurement = "> 7.00"

[[record]]
molecule = "O=C(COc1ccc2c(c1)N(c1nc(-c3ccc(Cl)s3)nc3c1CCC3)CC2)N1CCCC1"
experimentaltarget = "human PDE4B1 (Homo sapiens)"
observedmeasurement = "6.00 to 7.00"

[[record]]
molecule = "O=C(O)Cc1ccc2c(c1)CCN2c1nc(-c2ccc(Cl)s2)nc2c1CSC2"
experimentaltarget = "human PDE4B1 (Homo sapiens)"
observedmeasurement = "> 7.00"

[[record]]
molecule = "COC(=O)COc1ccc2c(c1)N(c1nc(-c3ccc(Cl)s3)nc3c1CS(=O)(=O)C3)CC2"
experimentaltarget = "human PDE4B1 (Homo sapiens)"
observedmeasurement = "6.00 to 7.00"

[[record]]
molecule = "COc1cc(F)ccc1-c1nc2c(c(N3CCc4ccc(OCC(=O)N(C)C)cc43)n1)C[S+]([O-])C2 (stereo not drawn)"
experimentaltarget = "human PDE4B1 (Homo sapiens)"
observedmeasurement = "6.00 to 7.00"

[[record]]
molecule = "O=C(O)Cc1ccc2c(c1)CCN2c1nc(-c2ccc(F)s2)nc2c1CS(=O)(=O)C2"
experimentaltarget = "human PDE4B1 (Homo sapiens)"
observedmeasurement = "> 7.00"

[[record]]
molecule = "CN(C)C(=O)COc1ccc2c(c1)N(c1nc(-c3ccoc3)nc3c1C[S+]([O-])C3)CC2 (stereo not drawn)"
experimentaltarget = "human PDE4B1 (Homo sapiens)"
observedmeasurement = "> 7.00"

[[record]]
molecule = "O=C(COc1ccc2c(c1)N(c1nc(-c3ccncc3)nc3c1C[S+]([O-])C3)CC2)N1CCC1 (stereo not drawn)"
experimentaltarget = "human PDE4B1 (Homo sapiens)"
observedmeasurement = "> 7.00"

[[record]]
molecule = "COc1cccc(-c2nc3c(c(N4CCc5ccc(OCC(=O)N(C)C)cc54)n2)C[S+]([O-])C3)c1 (stereo not drawn)"
experimentaltarget = "human PDE4B1 (Homo sapiens)"
observedmeasurement = "> 7.00"

[[record]]
molecule = "COC(=O)COc1ccc2c(c1)N(c1nc(-c3ccc(Cl)s3)nc3c1CCC3)CC2"
experimentaltarget = "human PDE4B1 (Homo sapiens)"
observedmeasurement = "6.00 to 7.00"

[[record]]
molecule = "CN(C)C(=O)COc1ccc2c(c1)N(c1nc(-c3ccc(C#N)cc3)nc3c1C[S+]([O-])C3)CC2 (stereo not drawn)"
experimentaltarget = "human PDE4B1 (Homo sapiens)"
observedmeasurement = "> 7.00"

[[record]]
molecule = "Cc1cccc(-c2nc3c(c(N4CCc5ccc(OCC(=O)N(C)C)cc54)n2)C[S+]([O-])C3)c1 (stereo not drawn)"
experimentaltarget = "human PDE4B1 (Homo sapiens)"
observedmeasurement = "> 7.00"


Origin of values: patent US9527832B2
